System: Staphylococcus aureus
Assay: Antibacterial activity against Staphylococcus aureus by broth dilution method
Format: functional
reported_endpoint: MIC (µg/mL)
Value expressed in µg/mL; do not type the unit.

Given Cc1coc2cc3oc(C(=O)Nc4ccc(Cl)cc4)c(C)c3cc12 , state its recorded MIC.
400

Also O=C(O)c1cn(C2CC2)c2cc(N3CCNCC3)c(F)cc2c1=O ?
5

Item: Cc1coc2cc3oc(C(=O)N4CCCC4)c(C)c3cc12
160

One more molecule: Cc1coc2cc3oc(C(=O)N4CCc5ccccc5C4)c(C)c3cc12
400

And what about the molecule COc1ccc(NC(=O)c2oc3cc4occ(C)c4cc3c2C)cc1 ?
160

Repeat with Cc1coc2cc3oc(C(=O)N4CCOCC4)c(C)c3cc12
400

Next molecule: Cc1ccc(NC(=O)c2oc3cc4occ(C)c4cc3c2C)cc1
200

And then Cc1coc2cc3oc(C(=O)Nc4ccc(O)cc4)c(C)c3cc12 , what is it?
600

Further, for Cc1coc2cc3oc(C(=O)Nc4ccc(C(=O)O)cc4)c(C)c3cc12 ?
600

Similarly, CCN(CC)C(=O)c1oc2cc3occ(C)c3cc2c1C ?
160

Moving on to Cc1coc2cc3oc(C(=O)N4CCCCC4)c(C)c3cc12
400

Could you do the same for Cc1coc2cc3oc(C(=O)Nc4ccccc4)c(C)c3cc12 , please?
600
